assay: RP, Thermo Scientific Acclaim RSLC 120 C18, 100 × 2.1 mm, 2.2 µm, 30 °C, 0.2 mL/min, estimated dead time 1.1 min; A: 90% water + 10% methanol + 0.01% formic acid + 5 mM ammonium formate, pH 3.61; B: methanol + 0.01% formic acid + 5 mM ammonium formate, pH 3.61; gradient (min/%B) 0/1 1/1 2/39 13/99.9 15/99.9 15.1/1 20.1/1; conditions: stereoisomer not certain

molecule	LC retention time, min
CC(C)OP(=O)(OC(C)C)SCc1ccccc1 [Iprobenfos]	10.6
COC(=O)N(OC)c1ccccc1COc1ccn(-c2ccc(Cl)cc2)n1 [Pyraclostrobin]	11.2
CC(CC(C#N)(c1ccccc1)C(C)C)N(C)C (centres undefined) [Isoaminile]	5.96
Oc1ccc2ccccc2c1N=Nc1ccccc1 [Sudan I]	13.6
CCN(CC)C(=O)c1cccc(C)c1 [DEET (Diethyltoluamide)]	8.2
C=CCOC(=O)C(C)(C)OC(=O)c1cc(-n2c(=O)cc(C(F)(F)F)n(C)c2=O)ccc1Cl [Butafenacil]	9.89
COP(=S)(OC)SCN1C(=O)c2ccccc2C1=O [Phosmet]	8.94
Cc1cc(NS(=O)(=O)c2ccc(N)cc2)no1 [Sulfamethoxazole]	4.6
O=C(O)C1C2CCC(O2)C1C(=O)O (centres undefined) [Endothal]	3.2
COc1ccc(C(=O)c2c(C)n(CCN3CCOCC3)c3ccccc23)cc1 [WIN-48-098]	9.55
O=c1cn[nH][nH]1 [1 2 3-triazole-5-OH (1.2.3)]	5.99
CCOC(=O)C1(c2ccccc2)CCC=CC1NC (centres undefined) [Tilidine-Nor]	5.28
Clc1ccc(C(OCCN2CCCCC2)c2ccccc2)cc1 (centres undefined) [Cloperastine]	8.46
CON(C)C(=O)Nc1ccc(Br)c(Cl)c1 [Chlorbromuron]	9.55
COC(=O)C(Cc1ccccc1)NC(=O)C(CC(=O)O)NCCC(C)(C)C (centres undefined) [Neotam]	8.83
COc1nc(C)nc(NC(=O)NS(=O)(=O)c2ccccc2Cl)n1 [Chlorsulfuron]	6.54
CCCCNC(=O)NS(=O)(=O)c1ccc(C)cc1 [Tolbutamide]	7.68
CC(C)(C)NCC(O)COc1nsnc1N1CCOCC1 (centres undefined) [Timolol]	4.88
COC(=O)C1=C(C)NC(C)=C(C(=O)OC(C)(C)CN(C)CCC(c2ccccc2)c2ccccc2)C1c1cccc([N+](=O)[O-])c1 (centres undefined) [Lercanidipine]	11.1

Every entry's value here was drawn from the RepoRT retention time repository (doi:10.1021/acs.analchem.2c02893).
